test system: SF-268; assay: NCI tumour cell line growth inhibition, 48 h
Counter-ions that a name gives are not always drawn. The source made the active and inactive calls. No stated cut-off is given here; in the data, active = GI50 up to about 1.1 µM and inactive = higher.
Outcomes: active, inactive

{"compound": "C#CCCOC(=O)CC1=C(C)/C(=C/c2ccc([S+](C)[O-])cc2)c2ccc(F)cc21 (stereo not drawn)", "class_assignment": "inactive"}
{"compound": "Cc1ccccc1NC(=O)C(=O)CC(=O)c1sc(-n2nc(-c3ccccc3)cc2-c2ccccc2)nc1C", "class_assignment": "inactive"}
{"compound": "CN1CCc2cc3c4cc2C1Cc1ccc(cc1)Oc1cc(ccc1O)CC1c2c(cc(O)c(c2O4)O3)CCN1C (stereo not drawn)", "class_assignment": "inactive"}
{"compound": "CN(C)C(=S)/N=c1\\ss/c(=N\\C(=S)N(C)C)n1-c1ccc2c(c1)OCO2", "class_assignment": "inactive"}
{"compound": "Cc1ccc(S(=O)(=O)NC2C(=O)c3ccccc3C(=O)C2n2cnc3ccccc32)cc1 (stereo not drawn)", "class_assignment": "inactive"}
{"compound": "O=C(c1ccccc1)N1C(=O)N(c2ccccc2)C(=N/c2ccccc2)/C1=N\\c1ccccc1", "class_assignment": "inactive"}
{"compound": "CCN(CC)c1c(-c2c(OC(C)C)c(=O)c2=O)c(=O)n2ccsc2c1OC(C)=O", "class_assignment": "inactive"}
{"compound": "COc1ccc(NC(=O)CC/C(CC(=O)C(C)(C)C)=N\\NC(=O)C(N)=O)cc1", "class_assignment": "inactive"}
{"compound": "O=c1[nH]c(=O)n(CCOc2ccc(Cl)cc2)cc1Nc1ccccc1", "class_assignment": "inactive"}
{"compound": "COC1/C=C/C(C)C(OC)CC(O)/C=C/C(C)C(C(C)C(OC)C(C)CCC(=O)C(C)C(C/C=C/N(C)C=O)OC)OC(=O)/C=C/C=C(\\C)CC(OC)CC2=CC(=O)O[C@@H](C(C)C(OC)C1)[C@H]2O (stereo partly drawn)", "class_assignment": "active"}
{"compound": "O=C(NC1CC1)c1c(O)[nH]c(=S)[nH]c1=O", "class_assignment": "inactive"}
{"compound": "O=C1c2ccccc2C(=O)c2sc(Nc3ccc(Cl)cc3)nc21", "class_assignment": "inactive"}
{"compound": "CCCCN/C(=N\\C#N)N(Cc1ccccc1)Cc1ccccc1", "class_assignment": "inactive"}
{"compound": "CC1OC(OC2C(O[C@H]3CC[C@@H]4C(=CC[C@@H]5[C@@]4(C)C(=O)C[C@]4(C)[C@@H]([C@H](C)CC[C@@H](O)C(C)(C)O)CC[C@@]54C)C3(C)C)OC(CO)C(O)C2O)C(O)C(O)C1O (stereo partly drawn)", "class_assignment": "inactive"}
{"compound": "COc1cc(CCCOC(=O)/C=C/c2ccc(O)c(O)c2)cc(O)c1O", "class_assignment": "inactive"}
{"compound": "CNC(C)Cc1ccccc1OC (stereo not drawn) [METHOXYPHENAMINE HYDROCHLORIDE]", "class_assignment": "inactive"}
{"compound": "CN(C)c1ccc(C(=O)NCCCCCCC(=O)NO)cc1", "class_assignment": "active"}
{"compound": "O=C1/C(=C\\c2ccco2)Oc2ccccc21", "class_assignment": "inactive"}
{"compound": "CC(=O)O[C@H]1C(=O)[C@@]2(C)[C@H]([C@H](OC(=O)c3ccccc3)[C@]3(O)C[C@H](OC(=O)[C@H](O)[C@@H](NC(=O)c4ccccc4)c4ccccc4C)C(C)=C1C3(C)C)[C@]1(OC(C)=O)CO[C@@H]1C[C@@H]2O", "class_assignment": "inactive"}
{"compound": "CSc1nc(SC)c2c(C)cn(Cc3ccccc3)c2n1", "class_assignment": "inactive"}
{"compound": "O=C1/C(=C\\c2ccc(Cl)cc2Cl)Sc2scc(-c3cccc([N+](=O)[O-])c3)[n+]21", "class_assignment": "inactive"}
{"compound": "COc1cc(C2C(Cl)C(=O)N2NC(=O)c2ccc(NC(C)=O)cc2OC)ccc1O (stereo not drawn)", "class_assignment": "inactive"}
{"compound": "CCOC(=O)c1c(SC(=O)c2ccc(C(C)(C)C)cc2)n(-c2ccccc2)c(=S)n(-c2ccccc2)c1=O", "class_assignment": "inactive"}

---

Catalogue of GI50 readings, one per entry.
tested on: HOP-18; test: NCI tumour cell line growth inhibition, 48 h
The source made the active and inactive calls. Cut-off read from the data, not from the text of the source: active = GI50 up to about 1.1 µM and inactive = higher.
reported_metric: GI50

{"molecule": "Nc1nc(Cl)cc(NCC(O)CO)n1 (centres undefined)", "tested_on": "HOP-18", "reported_metric": "GI50", "result_value": "> 100 µM (inactive)"}
{"molecule": "COC1[C@@H](OC(C)=O)[C@@H](NC(=O)C(Cl)(Cl)Cl)C(I)[C@@H](N2C(=O)c3ccccc3C2=O)[C@H]1OC (some centres undefined)", "tested_on": "HOP-18", "reported_metric": "GI50", "result_value": "> 100 µM (inactive)"}
{"molecule": "COC1=C(OC)CCC(/C(C#N)=C/c2ccc(OC)c(OC)c2)=C1", "tested_on": "HOP-18", "reported_metric": "GI50", "result_value": "> 100 µM (inactive)"}
{"molecule": "COC(=O)CC(NC(=O)OCc1ccccc1)C(C(C)=O)C(=O)OCc1ccccc1 (centres undefined)", "tested_on": "HOP-18", "reported_metric": "GI50", "result_value": "> 31.6 µM (inactive)"}
{"molecule": "CN(C)CCCOc1ccc(/C=C2/CCC/C(=C/c3ccc(OCCCN(C)C)cc3)C2=O)cc1", "tested_on": "HOP-18", "reported_metric": "GI50", "result_value": "3.61 µM (inactive)"}
{"molecule": "CCc1c(OC(C)=O)c2c(NC3OCC(OC(C)=O)C(OC(C)=O)C3OC(C)=O)nc(SC)nc2oc1=O (centres undefined)", "tested_on": "HOP-18", "reported_metric": "GI50", "result_value": "> 100 µM (inactive)"}
{"molecule": "CC(C)(C)[Si](C)(C)O/N=C\\c1cccc(O[Si](C)(C)C(C)(C)C)c1", "tested_on": "HOP-18", "reported_metric": "GI50", "result_value": "22.5 µM (inactive)"}
{"molecule": "CO[C@@H]1C=C[C@@]23c4cc5c(cc4CN(C[C@@H]2O)[C@H]3C1)OCO5 [(+)-HAEMANTHAMINE]", "tested_on": "HOP-18", "reported_metric": "GI50", "result_value": "21.8 µM (inactive)"}
{"molecule": "O=C1OC(c2ccccc2)=N/C1=C/N1CCCC1C(=O)O (centres undefined)", "tested_on": "HOP-18", "reported_metric": "GI50", "result_value": "> 100 µM (inactive)"}
{"molecule": "COC(=O)C(Cc1nc2ccc(Cl)cc2nc1O)C(=O)C(=O)Nc1ccccc1[N+](=O)[O-] (centres undefined)", "tested_on": "HOP-18", "reported_metric": "GI50", "result_value": "93.8 µM (inactive)"}
{"molecule": "S=c1sc2sc(=S)sc2s1", "tested_on": "HOP-18", "reported_metric": "GI50", "result_value": "> 100 µM (inactive)"}
{"molecule": "Cc1ccc(S(=O)(=O)N/N=C(/CC(=O)c2c(C)[n+]([O-])c3ccccc3[n+]2[O-])C(=O)Nc2ccc(C)c(C)c2)cc1", "tested_on": "HOP-18", "reported_metric": "GI50", "result_value": "> 100 µM (inactive)"}
{"molecule": "O=c1oc2c3ccc4ccccc4c3n(CCCN3CCCCC3)c2c2ccccc12", "tested_on": "HOP-18", "reported_metric": "GI50", "result_value": "> 100 µM (inactive)"}
{"molecule": "OCC(O)COc1c(Cl)cc(Cl)cc1Cl (centres undefined)", "tested_on": "HOP-18", "reported_metric": "GI50", "result_value": "> 100 µM (inactive)"}

---

Catalogue of GI50 readings, one per entry.
test system: SN12C; assay: NCI tumour cell line growth inhibition, 48 h
Structures can show the parent of a compound that is named as a salt. The source made the active and inactive calls. Rule as the data show it: active = GI50 up to about 1.1 µM and inactive = higher.

{"compound": "CC(CC(C#N)(c1ccccc1)c1ccccc1)N1CCCCC1 (configuration not stated)", "GI50": "26 µM (inactive)"}
{"compound": "C=C(C#N)C1OCC2OC(C)(C)OC21 (configuration not stated)", "GI50": "18.4 µM (inactive)"}
{"compound": "Cc1cccc(/N=N/C(=O)NNc2cccc(C)c2C)c1C", "GI50": "53.1 µM (inactive)"}
{"compound": "Cn1nc(N)nc1N=S(C)(C)=N", "GI50": "> 100 µM (inactive)"}
{"compound": "O=c1c(C(c2cc(OCc3ccccc3)cc(OCc3ccccc3)c2)c2c(O)oc3ccccc3c2=O)c(O)oc2ccccc12", "GI50": "3.71 µM (inactive)"}
{"compound": "C[C@H]1C[C@@H]2[C@H]([C@@H](O)C[C@@]3(C)[C@H]2CC[C@]3(O)C(=O)CO)[C@@]2(C)C=CC(=O)C=C12 [METHYLPREDNISOLONE]", "GI50": "46.6 µM (inactive)"}
{"compound": "O=C1COc2ccc([N+](=O)[O-])cc2C(=O)C1", "GI50": "> 10 µM (inactive)"}
{"compound": "CNC(C)Cc1ccccc1OC (configuration not stated) [METHOXYPHENAMINE HYDROCHLORIDE]", "GI50": "> 100 µM (inactive)"}
{"compound": "COC(=O)C(Cc1nc2ccc(Cl)cc2nc1O)C(=O)C(=O)Nc1ccccc1[N+](=O)[O-] (configuration not stated)", "GI50": "> 100 µM (inactive)"}
{"compound": "Cc1c2cccc-2c(OCCO)cc2c3ccccc3n(C)c12", "GI50": "3.13 µM (inactive)"}
{"compound": "CC(=O)/C(=C\\c1ccco1)C(=O)Nc1ccccc1", "GI50": "> 100 µM (inactive)"}
{"compound": "O=C(CN1CCN(c2ccccn2)CC1)N1CCCn2c1nc1ccccc1c2=O", "GI50": "> 100 µM (inactive)"}
{"compound": "C#CCCOC(=O)CC1=C(C)/C(=C/c2ccc([S+](C)[O-])cc2)c2ccc(F)cc21 (configuration not stated)", "GI50": "19.5 µM (inactive)"}
{"compound": "OCCCCCNc1nc(O)c2[nH]cnc2n1", "GI50": "> 100 µM (inactive)"}
{"compound": "CC(=O)O[C@H]1C(=O)[C@@]2(C)[C@H]([C@H](OC(=O)c3ccccc3)[C@]3(O)C[C@H](OC(=O)[C@H](O)[C@@H](NC(=O)c4ccccc4)c4ccccc4C)C(C)=C1C3(C)C)[C@]1(OC(C)=O)CO[C@@H]1C[C@@H]2O", "GI50": "2.11 µM (inactive)"}
{"compound": "O=C1C=C/C(=N/c2ccccc2)c2ccccc21", "GI50": "12.8 µM (inactive)"}
{"compound": "O=C(NC1CC1)c1c(O)[nH]c(=S)[nH]c1=O", "GI50": "> 100 µM (inactive)"}
{"compound": "O=C1/C(=C\\c2ccc(Cl)cc2Cl)Sc2scc(-c3cccc([N+](=O)[O-])c3)[n+]21", "GI50": "5.33 µM (inactive)"}
{"compound": "Oc1ccccc1C(c1cc2c(cc1O)OCO2)N1CCOCC1 (configuration not stated)", "GI50": "19.1 µM (inactive)"}
{"compound": "CCCCN/C(=N\\C#N)N(Cc1ccccc1)Cc1ccccc1", "GI50": "27.7 µM (inactive)"}
{"compound": "O[C@@H]1C[C@H](Cl)c2c(Cl)sc(Cl)c21", "GI50": "> 100 µM (inactive)"}
{"compound": "Cc1n[nH]c(N)c1C(N)=O", "GI50": "> 100 µM (inactive)"}
{"compound": "Nc1nc(Cl)cc(NCC(O)CO)n1 (configuration not stated)", "GI50": "> 100 µM (inactive)"}
{"compound": "O=C(O)[C@@H]1CCS(=O)(=O)N1", "GI50": "> 100 µM (inactive)"}
{"compound": "N#C/C(=C1\\OC(=N)C(c2ccccc2)C1=O)c1ccccc1 (configuration not stated)", "GI50": "35 µM (inactive)"}
{"compound": "Cc1ccc2c(n1)C(=O)C=CC2=O", "GI50": "13.4 µM (inactive)"}
{"compound": "CCCCCCCCCCCCCC1CCC(CC)N1 (configuration not stated)", "GI50": "11.3 µM (inactive)"}
